target: calf thymus R1 (calf)
Ends that are not written are not given here.
measurement.label: Percent RI (percent relative inhibitory potency), mammalian RR activity

Can you share its Percent RI (percent relative inhibitory potency), mammalian RR activity? I mean this binder: Ac-FTADADF [Ac-(FTADADF)] 4.9%

Can you share its Percent RI (percent relative inhibitory potency), mammalian RR activity? I mean this binder: Ac-FALDADF [Ac-(FALDADF)] 24%

Can you share its Percent RI (percent relative inhibitory potency), mammalian RR activity? I mean this binder: Ac-FTLDDF [Ac-(FTLDDF) (3 pos. del.)] 3%

Can you share its Percent RI (percent relative inhibitory potency), mammalian RR activity? I mean this binder: Ac-TLDADF [Ac-(TLDADF)] < 3%

Can you share its Percent RI (percent relative inhibitory potency), mammalian RR activity? I mean this binder: Ac-FLDADF [Ac-(FLDADF) (6 pos. del.)] 2.5%

Can you share its Percent RI (percent relative inhibitory potency), mammalian RR activity? I mean this binder: Ac-FSLDADF [Ac-(FSLDADF)] 25%

Can you share its Percent RI (percent relative inhibitory potency), mammalian RR activity? I mean this binder: Ac-FTLDANF [Ac-(FTLDANF)] 23%

Can you share its Percent RI (percent relative inhibitory potency), mammalian RR activity? I mean this binder: Ac-SFTLDADF [Ac-(SFTLDADF)] 100%
